Molecular target: CDK9/CycT1 (Homo sapiens)
Sequence (P50750 whole entry, species assumed): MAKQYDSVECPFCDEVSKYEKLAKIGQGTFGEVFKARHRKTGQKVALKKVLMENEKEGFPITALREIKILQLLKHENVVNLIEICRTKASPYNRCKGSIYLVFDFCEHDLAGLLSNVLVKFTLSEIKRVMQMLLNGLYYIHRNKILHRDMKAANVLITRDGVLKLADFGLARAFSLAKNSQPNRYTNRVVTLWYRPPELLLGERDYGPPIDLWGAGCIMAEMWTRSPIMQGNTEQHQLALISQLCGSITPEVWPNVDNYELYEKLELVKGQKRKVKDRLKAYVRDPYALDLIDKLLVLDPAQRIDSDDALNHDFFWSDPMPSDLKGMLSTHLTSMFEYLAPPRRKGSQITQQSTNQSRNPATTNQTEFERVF
Sequence (O60563 whole entry partner, species assumed): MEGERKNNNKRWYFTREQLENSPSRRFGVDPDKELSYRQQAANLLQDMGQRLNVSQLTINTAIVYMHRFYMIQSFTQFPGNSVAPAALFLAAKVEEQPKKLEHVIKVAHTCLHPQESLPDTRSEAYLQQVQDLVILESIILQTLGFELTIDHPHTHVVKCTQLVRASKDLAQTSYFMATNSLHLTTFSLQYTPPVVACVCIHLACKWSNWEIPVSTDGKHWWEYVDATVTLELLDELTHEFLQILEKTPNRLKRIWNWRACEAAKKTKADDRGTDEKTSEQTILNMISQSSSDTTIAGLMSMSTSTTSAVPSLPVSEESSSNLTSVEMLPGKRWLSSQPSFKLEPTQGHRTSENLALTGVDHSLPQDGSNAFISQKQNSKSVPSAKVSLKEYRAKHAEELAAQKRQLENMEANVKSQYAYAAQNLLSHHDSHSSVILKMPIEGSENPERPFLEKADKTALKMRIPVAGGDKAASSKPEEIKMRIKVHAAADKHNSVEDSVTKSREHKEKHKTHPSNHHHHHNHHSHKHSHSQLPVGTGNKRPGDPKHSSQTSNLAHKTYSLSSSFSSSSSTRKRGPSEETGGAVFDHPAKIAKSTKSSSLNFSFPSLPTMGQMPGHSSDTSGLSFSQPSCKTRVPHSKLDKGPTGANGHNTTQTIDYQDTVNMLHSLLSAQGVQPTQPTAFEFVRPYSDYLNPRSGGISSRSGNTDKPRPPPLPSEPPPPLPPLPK
Test: General kinase assay (Example 80)
Details: ATP 1 μM
READOUT NAME: IC50

IC50 reported for this compound CNS(=O)(=O)Cc1cccc(Nc2cc(-c3ccccc3OC)ncn2)c1 [Compound 49] : < 100 nM

IC50 reported for this compound COc1ccccc1-c1cc(Nc2cccc(CS(=O)(=O)N(C)C)c2)ncn1 [Compound 20] : < 500 nM

Turning now to a further record.
IC50 reported for this compound COCCNS(=O)(=O)Cc1cccc(Nc2cc(-c3ccccc3OC)ncn2)c1 [Compound 86] : < 500 nM

---

Test system: HT29
Experiment: Growth assay using Alamar Blue
Assay type: cell-based
Conditions: Homo sapiens, HT-29, read-out: IC50 against cell line HT29
pIC50: −log10 of the molar value.
READOUT NAME: pIC50

pIC50 reported for this compound COc1ccccc1-c1cc(Nc2cccc(CS(N)(=O)=O)c2)ncn1 : > 5.30

---

Target: CDK2/CycA (Homo sapiens, UniProt P24941)
Assay: General kinase assay (Example 80)
Settings: ATP 1 μM
READOUT NAME: IC50

IC50 reported for this compound CNS(=O)(=O)Cc1cccc(Nc2cc(-c3ccccc3OC)ncn2)c1 [Compound 49] : < 2 µM

IC50 reported for this compound COc1ccccc1-c1cc(Nc2cccc(CS(=O)(=O)N(C)C)c2)ncn1 [Compound 20] : < 2 µM

IC50 reported for this compound COCCNS(=O)(=O)Cc1cccc(Nc2cc(-c3ccccc3OC)ncn2)c1 [Compound 86] : < 10 µM

Turning now to a further record.
IC50 reported for this compound COc1ccccc1-c1cc(Nc2cccc(CS(N)(=O)=O)c2)ncn1 [Compound 85] : < 10 µM

---

Assign melting point to each entry below.

A selection of reference data follows.
melting point reported for this compound CCOc1ccccc1-c1cc(Nc2cccc(CS(N)(=O)=O)c2)ncn1 : 236.3 to 238.6 °C

melting point reported for this compound COc1ccccc1-c1cc(Nc2cccc(CS(N)(=O)=O)c2)nc(N)n1 : 211.7 to 213.1 °C

melting point reported for this compound CS(=O)(=O)c1cccc(Nc2cc(-c3ccccc3O)ncn2)c1 [Reference Example 49] : 214 to 216.1 °C

melting point reported for this compound COc1ccccc1-c1cc(Nc2cccc(CS(=O)(=O)N(C)C)c2)ncn1 : 187.5 to 188.8 °C

melting point reported for this compound CS(=O)(=O)c1cccc(Nc2cc(-c3ccccc3OCc3ccccc3)ncn2)c1 [Reference Example 51] : 199 to 205 °C

Each compound below has a reported value. Please supply its melting point.
1. CCCS(=O)(=O)Nc1cc(Nc2cc(-c3cccc([N+](=O)[O-])c3)ncn2)ccc1C
2. COCCCNS(=O)(=O)Cc1cccc(Nc2cc(-c3ccccc3OC)ncn2)c1
3. CS(=O)(=O)Cc1cccc(Nc2cc(-c3ccccc3OCC3CCCO3)ncn2)c1 (stereo not shown)
4. COCCOc1ccccc1-c1cc(Nc2cccc(CS(C)(=O)=O)c2)ncn1
5. NS(=O)(=O)Cc1cccc(Nc2cc(-c3ccccc3OCC3CCCO3)ncn2)c1 (stereo not shown)
6. CNS(=O)(=O)Cc1cccc(Nc2cc(-c3ccccc3COC)ncn2)c1

1: 202 to 203.5 °C; 2: 149.2 to 150.8 °C; 3: 160 to 162.6 °C; 4: 141 to 142.9 °C; 5: 168.4 to 169.4 °C; 6: 171 to 172 °C

Each compound below has a reported value. Please supply its melting point.
1. NS(=O)(=O)Cc1cccc(Nc2cc(-c3cccc(C(F)(F)F)c3)ncn2)c1
2. COCCOc1ccccc1-c1cc(Nc2cccc(CS(N)(=O)=O)c2)nc(C)n1

["221.5 to 223 °C", "209 to 211.1 °C"]
